- system_under_test: human CD33 A65S (human, UniProt P20138 18-364)
- Sequence (P20138 18-364 A65S limits assumed): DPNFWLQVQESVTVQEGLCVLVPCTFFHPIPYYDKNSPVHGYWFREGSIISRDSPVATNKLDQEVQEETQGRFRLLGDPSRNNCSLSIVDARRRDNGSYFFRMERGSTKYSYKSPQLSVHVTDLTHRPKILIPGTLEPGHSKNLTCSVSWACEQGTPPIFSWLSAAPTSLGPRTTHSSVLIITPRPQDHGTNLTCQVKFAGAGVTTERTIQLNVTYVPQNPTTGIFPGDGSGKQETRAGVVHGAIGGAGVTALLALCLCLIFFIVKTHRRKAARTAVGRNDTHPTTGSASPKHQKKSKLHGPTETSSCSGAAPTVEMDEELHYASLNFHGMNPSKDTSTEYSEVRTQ
- procedure_text: alanine scan, flow cytometry;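 note: HEK293-T cells transiently expressing single-residue alanine mutants of CD33 (alanine swapped to serine), antibody binding read by fluorescence in duplicate, background-subtracted, expressed relative to wild-type CD33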
value_kind: Mean % WT Binding (% WT)
Provide only the numeric value, understood in % WT.

Tell me its Mean % WT Binding given Refmab #2 (antibody, V domains shown, Full-length format is human IgG1 Fc silent (PG-LALA); The alanine scan used IgG or Fab) VH: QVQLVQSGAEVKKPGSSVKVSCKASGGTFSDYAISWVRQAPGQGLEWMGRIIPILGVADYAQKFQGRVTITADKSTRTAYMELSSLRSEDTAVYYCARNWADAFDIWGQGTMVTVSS VL: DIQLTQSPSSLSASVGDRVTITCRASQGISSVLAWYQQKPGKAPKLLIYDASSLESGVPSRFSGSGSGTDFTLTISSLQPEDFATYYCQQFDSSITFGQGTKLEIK as the entry.
112
